Origin of the recorded values: PubChem BioAssay (NCI)

- Tested on: DMS 273 small cell lung
- protocol.summary: NCI tumour cell line growth inhibition, 48 h
measurement.label: TGI

Please review the entries below; each comes with its answer.
CN(C)CCC(/C=C/c1ccccc1)=N\Nc1ccccc1 ... 6.5 µM
C#CC1/C(=C\C(=O)OC)CCCC1O (stereo unspecified) ... > 100 µM
CCCCCCCCCCCC[S+](C)C ... 17.2 µM

INPUT: Return reported TGI; argument: `COc1ccc(OCC(=O)O)c2c1CCCC2=O`
OUTPUT: > 100 µM

INPUT: Param item = `CN(C)C(=S)/N=c1\sn(C)/c(=N\C(=S)N(C)C)n1C` ; retrieve measured TGI.
OUTPUT: > 100 µM

INPUT: Which TGI is reported for this molecule? COC(=O)C(=Cc1cc(OC)c(OC)c(OC)c1-c1cc2c(cc1C1(C)OCCS1)OCO2)C(=O)OC (stereo unspecified)
OUTPUT: 75.1 µM

====

- Tested on: TK-10 renal
- protocol.summary: NCI tumour cell line growth inhibition, 48 h; in the data active = GI50 below about 0.43 µM; inactive = the rest
A correct response names exactly one class from active, inactive

Take a look at these entries with their results.
NC1CCN(Cc2ccccc2)CC1 ... inactive
NC(N)=N/N=C/c1c(Cl)cccc1Cl ... inactive
O=C(c1ccco1)c1c(C(F)(F)F)nc2ccc(Cl)cc2[n+]1[O-] ... inactive
NC(=O)c1c(NC(=O)c2ccccc2)sc2c1CCC(=O)C2 ... inactive
O=C(Nc1cccc(C(F)(F)F)c1)c1ccc(NC2=C(Cl)C(=O)N(Cc3ccc(Cl)cc3Cl)C2=O)cc1 ... inactive

INPUT: Fill in: this test's call for `CCC[CH2][Sn]([CH2]CCC)([O]C(=O)c1ccc(OC)c(OC)c1OC)[O][Sn]([CH2]CCC)([CH2]CCC)[O]C(=O)c1ccc(OC)c(OC)c1OC` is ___
OUTPUT: active

INPUT: Please indicate how the test categorized `CN1CCN(c2ccc(Nc3cc(-c4cccc(-n5ccc6cc(C7CC7)cc(F)c6c5=O)c4CO)cn(C)c3=O)nc2)CC1` .
OUTPUT: inactive

====

- Tested on: A498 renal
- protocol.summary: NCI tumour cell line growth inhibition, 48 h; in the data active means GI50 below about 0.43 µM; inactive means the rest
# valid calls are active, inactive; nothing else

Would you please look over these solved cases?
COc1ccc(-c2ccc(=O)oc2C#Cc2cc(OC)c(OC)c(OC)c2)cc1O ... inactive
Clc1cc2c(c(CSc3nc4ccccc4n4cccc34)c1)OCOC2 ... inactive
NC(=O)c1c(NC(=O)c2ccccc2)sc2c1CCC(=O)C2 ... inactive
CC(NCCC(c1ccccc1)c1ccccc1)c1ccccc1 (centres undefined) ... inactive
C[n+]1c(/C=C/c2c(O)ccc3ccccc23)ccc2ccccc21 ... inactive
CC(=O)Nc1ccc(-c2csc(Nc3cccc(-c4csc(C)n4)c3)n2)cc1 ... inactive
CC1(C)OC2C(CO[Si](C)(C)C(C)(C)C)OC(n3c(I)c(C#C[Si](C)(C)C)c(=O)[nH]c3=O)C2O1 (centres undefined) ... inactive
CCOC(=O)Nc1cc2c(c(N)n1)N=C(c1ccccc1)CO2 ... active
CCn1c(O)c(/C=N/NC(=O)C(C)c2ccc(CC(C)C)cc2)sc1=S (centres undefined) ... active
COc1cc(N=Nc2ccc(O)c3ncccc23)c2ncccc2c1 ... inactive

INPUT: Hello, I am checking results. What call was entered for `O=c1c(F)cn(Cc2ccc(C34CC5CC(CC(C5)C3)C4)c(O)c2)c(=O)n1Cc1ccc(C23CC4CC(CC(C4)C2)C3)c(O)c1` ?
OUTPUT: inactive

INPUT: Per the records of this test, what outcome belongs to `O=C(/C=C/c1ccc[nH]1)c1ccc(-n2ccc(C(F)(F)F)n2)cc1` ?
OUTPUT: inactive

INPUT: Status in this test for `CCN1CCN(c2cc(C)c3cc(NC(=O)c4ccc(OC)c(OC)c4)ccc3n2)CC1` ?
OUTPUT: inactive

INPUT: Status in this test for `COC(=O)[C@]12CC[C@@H](C)[C@H](C)[C@@H]1C1=CC[C@@H]3[C@@]4(C)C[C@@H](O)[C@H](O)[C@@](C)(CO)C4=CC[C@@]3(C)[C@]1(C)CC2` ?
OUTPUT: inactive
